Experiment: total protein half-life in vivo (active degradation + dilution); higher = more stable protein
Conditions: wild type E. coli NCM3722; growth: C-lim chemostat; doubling time 3 h
As shown below, each of these sequences has a reported total protein half-life in vivo value.
Please provide the amount together with its unit, number first.

Input: Recorded total protein half-life in vivo of `MDLASLRAQQIELASSVIREDRLDKDPPDLIAGADVGFEQGGEVTRAAMVLLKYPSLELVEYKVARIATTMPYIPGFLSFREYPALLAAWEMLSQKPDLVFVDGHGISHPRRLGVASHFGLLVDVPTIGVAKKRLCGKFEPLSSEPGALAPLMDKGEQLAWVWRSKARCNPLFIATGHRVSVDSALAWVQRCMKGYRLPEPTRWADAVASERPAFVRYTANQP` , please.
Output: 3.05 h

Input: Recorded total protein half-life in vivo of `MTDNTYQPAKVWTWDKSAGGAFANINRPVSGPTHEKTLPVGKHPLQLYSLGTPNGQKVTIMLEELLALGVTGAEYDAWLIRIGDGDQFSSGFVEVNPNSKIPALRDHTHNPPIRVFESGSILLYLAEKFGYFLPQDLAKRTETMNWLFWLQGAAPFLGGGFGHFYHYAPVKIEYAINRFTMEAKRLLDVLDKQLAQHKFVAGDEYTIADMAIWPWFGNVVLGGVYDAAEFLDAGSYKHVQRWAKEVGERPAVKRGRIVNRTNGPLNEQLHERHDASDFETNTEDKRQG` , please.
Output: 3.18 h

Input: Recorded total protein half-life in vivo of `MTTLAIDIGGTKLAAALIGADGQIRDRRELPTPASQTPEALRDALSALVSPLQAHAQRVAIASTGIIRDGSLLALNPHNLGGLLHFPLVKTLEQLTNLPTIAINDAQAAAWAEFQALDGDITDMVFITVSTGVGGGVVSGCKLLTGPGGLAGHIGHTLADPHGPVCGCGRTGCVEAIASGRGIAAAAQGELAGADAKTIFTRAGQGDEQAQQLIHRSARTLARLIADIKATTDCQCVVVGGSVGLAEGYLALVETYLAQEPAAFHVDLLAAHYRHDAGLLGAALLAQGEKL` , please.
Output: 2.57 h

Input: Recorded total protein half-life in vivo of `MLKLTDITWLYHHLPMRFSLTVERGEQVAILGPSGAGKSTLLNLIAGFLTPASGSLTIDGVDHTTMPPSRRPVSMLFQENNLFSHLTVAQNIGLGLNPGLKLNAVQQGKMHAIARQMGIDNLMARLPGELSGGQRQRVALARCLVREQPILLLDEPFSALDPALRQEMLTLVSTSCQQQKMTLLMVSHSVEDAARIATRSVVVADGRIAWQGMTNELLSGKASASALLGITG` , please.
Output: 3.03 h

Input: Recorded total protein half-life in vivo of `MSIKLIAVDMDGTFLSDQKTYNRERFMAQYQQMKAQGIRFVVASGNQYYQLISFFPEIANEIAFVAENGGWVVSEGKDVFNGELSKDAFATVVEHLLTRPEVEIIACGKNSAYTLKKYDDAMKTVAEMYYHRLEYVDNFDNLEDIFFKFGLNLSDELIPQVQKALHEAIGDIMVSVHTGNGSIDLIIPGVHKANGLRQLQKLWGIDDSEVVVFGDGGNDIEMLRQAGFSFAMENAGSAVVAAAKYRAGSNNREGVLDVIDKVLKHEAPFDQ` , please.
Output: 2.44 h

Input: Recorded total protein half-life in vivo of `MDSFPAIEIDKVKAWDFRLANINTSECLNVAYGVDANYLDGVGVSITSIVLNNRHINLDFYIIADVYNDGFFQKIAKLAEQNQLRITLYRINTDKLQCLPCTQVWSRAMYFRLFAFQLLGLTLDRLLYLDADVVCKGDISQLLHLGLNGAVAAVVKDVEPMQEKAVSRLSDPELLGQYFNSGVVYLDLKKWADAKLTEKALSILMSKDNVYKYPDQDVMNVLLKGMTLFLPREYNTIYTIKSELKDKTHQNYKKLITESTLLIHYTGATKPWHKWAIYPSVKYYKIALENSPWKDDSPRDAKSIIEFKKRYKHLLVQHHYISGIIAGVCYLCRKYYRK` , please.
Output: 2.93 h

Input: Recorded total protein half-life in vivo of MKAARQQAIVDLLLNHTSLTTEALSEQLKVSKETIRRDLNELQTQGKILRNHGRAKYIHRQNQDSGDPFHIRLKSHYAHKADIAREALAWIEEGMVIALDASSTCWYLARQLPDINIQVFTNSHPICHELGKRERIQLISSGGTLERKYGCYVNPSLISQLKSLEIDLFIFSCEGIDSSGALWDSNAINADYKSMLLKRAAQSLLLIDKSKFNRSGEARIGHLDEVTHIISDERQVATSLVTA [P0ACK8] , please.
Output: 0.695 h

Input: Recorded total protein half-life in vivo of MEQLRAELSHLLGEKLSRIECVNEKADTALWALYDSQGNPMPLMARSFSTPGKARQLAWKTTMLARSGTVRMPTIYGVMTHEEHPGPDVLLLERMRGVSVEAPARTPERWEQLKDQIVEALLAWHRQDSRGCVGAVDNTQENFWPSWYRQHVEVLWTTLNQFNNTGLTMQDKRILFRTRECLPALFEGFNDNCVLIHGNFCLRSMLKDSRSDQLLAMVGPGLMLWAPREYELFRLMDNSLAEDLLWSYLQRAPVAESFIWRRWLYVLWDEVAQLVNTGRFSRRNFDLASKSLLPWLA [P0AB03] , please.
Output: 2.16 h

Input: Recorded total protein half-life in vivo of `MPIRVPDELPAVNFLREENVFVMTTSRASGQEIRPLKVLILNLMPKKIETENQFLRLLSNSPLQVDIQLLRIDSRESRNTPAEHLNNFYCNFEDIQDQNFDGLIVTGAPLGLVEFNDVAYWPQIKQVLEWSKDHVTSTLFVCWAVQAALNILYGIPKQTRTEKLSGVYEHHILHPHALLTRGFDDSFLAPHSRYADFPAALIRDYTDLEILAETEEGDAYLFASKDKRIAFVTGHPEYDAQTLAQEFFRDVEAGLDPDVPYNYFPHNDPQNTPRASWRSHGNLLFTNWLNYYVYQITPYDLRHMNPTLD` , please.
Output: 2.61 h

Input: Recorded total protein half-life in vivo of `MNEHHQPFEEIKLINANGAEQWSARQLGKLLGYSEYRHFIPVLTRAKEACENSGHTIDDHFEEILDMVKIGSNAKRALKDIVLSRYACYLVVQNGDPAKPVIAAGQTYFAIQTRRQELADDEAFKQLREDEKRLFLRNELKEHNKQLVEAAQQAGVATATDFAIFQNHGYQGLYGGLDQKAIHQRKGLKKNQKILDHMGSTELAANLFRATQTEEKLKRDGVNSKQQANTTHFDVGRKVRQTIQELGGTMPEELPTPQVSIKQLENSVKITEKK` , please.
Output: 2.12 h

Input: Recorded total protein half-life in vivo of MKRKVLLIPLIIFLAIAAALLWQLARNAEGDDPTNLESALIGKPVPKFRLESLDNPGQFYQADVLTQGKPVLLNVWATWCPTCRAEHQYLNQLSAQGIRVVGMNYKDDRQKAISWLKELGNPYALSLFDGDGMLGLDLGVYGAPETFLIDGNGIIRYRHAGDLNPRVWEEEIKPLWEKYSKEAAQ [P0AA86] , please.
Output: 3 h
